test system: E. coli ATCC 25922; assay: microbe, parasite or virus in culture; details: Escherichia coli, ATCC25922, Corning NBS; MH; 2% LS; n = 2
# reported MIC; entries follow
A number alone suffices; assume µg/mL.

SMILES_RECORD | MIC, µg/mL
CO[C@H]1/C=C/O[C@@]2(C)Oc3c(C)c(O)c4c(O)c(c(/C=N/N5CCN(C)CC5)c(O)c4c3C2=O)NC(=O)/C(C)=C\C=C\[C@H](C)[C@H](O)[C@@H](C)[C@@H](O)[C@@H](C)[C@H](OC(C)=O)[C@@H]1C | 8

Look up MIC: `CC1(C)S[C@@H]2[C@H](NC(=O)Cc3ccccc3)C(=O)N2[C@H]1C(=O)O` 64

* * *

tested on: K. pneumoniae ATCC 13883; assay: microbe, parasite or virus in culture; conditions: Klebsiella pneumoniae, ATCC13883, Corning PS; MHB +T80; n = 2
VALUE_TYPE: MIC

SMILES_RECORD | TARGET_OR_SYSTEM | MIC
Cc1onc(-c2ccccc2)c1C(=O)N[C@@H]1C(=O)N2[C@@H]1SC(C)(C)[C@@H]2C(=O)O | K. pneumoniae ATCC 13883 | > 64 µg/mL
CC1(C)S[C@@H]2[C@H](NC(=O)Cc3ccccc3)C(=O)N2[C@H]1C(=O)O | K. pneumoniae ATCC 13883 | > 64 µg/mL
CO[C@H]1/C=C/O[C@@]2(C)Oc3c(C)c(O)c4c(O)c(c(/C=N/N5CCN(C)CC5)c(O)c4c3C2=O)NC(=O)/C(C)=C\C=C\[C@H](C)[C@H](O)[C@@H](C)[C@@H](O)[C@@H](C)[C@H](OC(C)=O)[C@@H]1C | K. pneumoniae ATCC 13883 | 16 to 64 µg/mL

// next entry
Look up MIC: `COc1cc(Cc2cnc(N)nc2N)cc(OC)c1OC` 2 to 4 µg/mL

* * *

# reported MIC; entries follow
tested on: E. coli ATCC 25922; experiment: microbe, parasite or virus in culture; details: Escherichia coli, ATCC25922, 24 h, Corning NBS; MH + T80; 2% LS; n = 2
A number alone suffices; assume µg/mL.

COMPOUND | MIC [µg/mL]
CC1(C)S[C@@H]2[C@H](NC(=O)Cc3ccccc3)C(=O)N2[C@H]1C(=O)O [Penicillin G, penicillin G] | 32

// next entry
Look up MIC: COc1cc(Cc2cnc(N)nc2N)cc(OC)c1OC [Trimethoprim, trimethoprim] 2

* * *

test system: E. coli ATCC 25922; test: microbe, parasite or virus in culture; conditions: Escherichia coli, ATCC25922, Corning NBS; MH; 50% HS; n = 2
VALUE_TYPE: MIC (µg/mL)
A number alone suffices; assume µg/mL.

SMILES_RECORD | MEASURE_UNIT | MIC
CO[C@H]1/C=C/O[C@@]2(C)Oc3c(C)c(O)c4c(O)c(c(/C=N/N5CCN(C)CC5)c(O)c4c3C2=O)NC(=O)/C(C)=C\C=C\[C@H](C)[C@H](O)[C@@H](C)[C@@H](O)[C@@H](C)[C@H](OC(C)=O)[C@@H]1C | µg/mL | 8

// next entry
Look up MIC: `CC1(C)S[C@@H]2[C@H](NC(=O)Cc3ccccc3)C(=O)N2[C@H]1C(=O)O` 64

Where these numbers come from: paper PMC6325200
